assay: Microsomal Intrinsic Clearance Assay; format: in vitro ADME, Human; settings: human, liver microsomes; 1 μM; microsomal protein 1 mg/mL; pH 7.4; 37° C.; read-out: HLM t1/2
measurement-kind: half-life at 1 μM (min)
Reply with just the number (in min).

Entry C[C@]12CC[C@H]3[C@@H](CCC4=CC(=O)CC[C@@]43C)[C@@H]1CC[C@@H]2O [Testosterone, testosterone, reference compound] — recorded half-life at 1 μM = 10

----------
assay: S9 Intrinsic Clearance Assay; format: in vitro ADME, Human; conditions: human, hepatic S9 fraction; 1 μM; protein 1.25 mg/mL; pH 7.4; 37° C; NADPH, UDPGA, PAPS
measurement-kind: microsomal CLint at 1 μM (µL/min/mg)
Reply with just the number (in µL/min/mg).

Entry C[C@]12CC[C@H]3[C@@H](CCC4=CC(=O)CC[C@@]43C)[C@@H]1CC[C@@H]2O [Testosterone, testosterone, reference compound] — recorded microsomal CLint at 1 μM = 47

----------
assay: S9 Intrinsic Clearance Assay; type: in vitro ADME, Human; conditions: human; hepatic S9 fraction; read-out: half-life of degradation in S9 fraction
measurement-kind: half-life

Entry C[C@]12CC[C@H]3[C@@H](CCC4=CC(=O)CC[C@@]43C)[C@@H]1CC[C@@H]2O [Testosterone, testosterone, reference compound] — recorded half-life = ~29 min
